Target: T1, Human CXCR2 (human, UniProt P25025 1-360)
T1 sequence: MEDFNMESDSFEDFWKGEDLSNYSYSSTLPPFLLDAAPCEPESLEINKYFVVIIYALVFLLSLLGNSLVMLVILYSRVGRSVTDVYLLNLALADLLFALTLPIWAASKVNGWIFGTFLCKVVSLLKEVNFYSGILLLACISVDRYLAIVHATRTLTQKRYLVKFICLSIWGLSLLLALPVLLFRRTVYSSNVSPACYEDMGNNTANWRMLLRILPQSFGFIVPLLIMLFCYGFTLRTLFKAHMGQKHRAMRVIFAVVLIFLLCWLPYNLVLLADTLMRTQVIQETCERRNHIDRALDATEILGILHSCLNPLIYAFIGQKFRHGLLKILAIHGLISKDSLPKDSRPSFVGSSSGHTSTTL
Test: cell-based or functional assay
QUANTITY NAME: Human Chemotaxis IC50 (vs rhGROα) (nM)
I only need the number, in nM, no unit after it.

In plain terms, CXCR20033 (bispecific antibody, not shown: small tags and cut ends) EVQLVESGGGLVQPGGSLRLSCVASGRIFSSNAMGWFRQAPGKEREFVAAITWRSGGSAYYADSAKGRFTISRDNAKNTVYLQMNSLKPEDTAVYYCAAGGSSWLSFPPDYWGQGTQVTVSSGGGGSGGGGSGGGGSGGGGSGGGGSGGGGSGGGGSEVQLVESGGELVQPGGSLRLSCAASGSILTINAMGWYRQAPGKQRELVVRRTRGGSTTYQDSVKGRFTISADIAKKTMYLQMNSLKPEDTAVYYCMLDDRGGVYWGQGTQVTVSS has a documented Human Chemotaxis IC50 (vs rhGROα) of 0.145

***
In plain terms, CXCR20014 (bispecific antibody, not shown: small tags and cut ends) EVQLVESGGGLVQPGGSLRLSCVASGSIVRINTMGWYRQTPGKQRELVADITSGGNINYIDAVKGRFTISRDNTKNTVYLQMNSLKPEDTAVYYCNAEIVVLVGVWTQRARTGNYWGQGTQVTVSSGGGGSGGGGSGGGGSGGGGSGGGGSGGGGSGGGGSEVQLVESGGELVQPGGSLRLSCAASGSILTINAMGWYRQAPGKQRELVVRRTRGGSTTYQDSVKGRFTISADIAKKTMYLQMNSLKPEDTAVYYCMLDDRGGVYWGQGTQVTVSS has a documented Human Chemotaxis IC50 (vs rhGROα) of 0.16

In plain terms, CXCR20020 (bispecific antibody, not shown: small tags and cut ends) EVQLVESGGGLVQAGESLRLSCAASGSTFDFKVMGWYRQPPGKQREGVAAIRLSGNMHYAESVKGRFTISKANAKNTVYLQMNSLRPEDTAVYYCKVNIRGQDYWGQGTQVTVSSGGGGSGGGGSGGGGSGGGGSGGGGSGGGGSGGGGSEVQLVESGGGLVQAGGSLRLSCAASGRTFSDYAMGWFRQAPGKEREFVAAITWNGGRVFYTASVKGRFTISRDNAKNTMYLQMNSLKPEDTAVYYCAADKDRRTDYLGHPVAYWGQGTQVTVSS has a documented Human Chemotaxis IC50 (vs rhGROα) of 0.145

In plain terms, CXCR20034 (bispecific antibody, not shown: small tags and cut ends) EVQLVESGGGLVQAGGSLRLSCAASGRTFSDYAMGWFRQAPGKEREFVAAITWNGGRVFYTASVKGRFTISRDNAKNTMYLQMNSLKPEDTAVYYCAADKDRRTDYLGHPVAYWGQGTQVTVSSGGGGSGGGGSGGGGSGGGGSGGGGSGGGGSGGGGSEVQLVESGGELVQPGGSLRLSCAASGSILTINAMGWYRQAPGKQRELVVRRTRGGSTTYQDSVKGRFTISADIAKKTMYLQMNSLKPEDTAVYYCMLDDRGGVYWGQGTQVTVSS has a documented Human Chemotaxis IC50 (vs rhGROα) of 0.145

In plain terms, CXCR20026 (bispecific antibody, not shown: small tags and cut ends) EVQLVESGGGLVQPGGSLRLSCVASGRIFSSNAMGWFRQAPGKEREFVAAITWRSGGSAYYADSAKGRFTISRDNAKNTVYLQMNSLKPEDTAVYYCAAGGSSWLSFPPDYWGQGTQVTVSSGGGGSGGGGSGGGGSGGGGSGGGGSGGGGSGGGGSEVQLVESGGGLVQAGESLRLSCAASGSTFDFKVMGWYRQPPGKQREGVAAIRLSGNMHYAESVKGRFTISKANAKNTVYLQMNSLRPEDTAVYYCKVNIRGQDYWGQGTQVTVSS has a documented Human Chemotaxis IC50 (vs rhGROα) of 0.14
